Please respond with reported logIC50 for every item in the list.
# System: HeLa (Human cervical carcinoma)
# Test protocol: Cytotoxicity testing (MTS) on HeLa
# Assay type: cell-based
Form entry: enter the amount, then its unit.

Query: What value of measured logIC50 is listed for COc1cc2c(c(OC(=O)C(C)C)c1OC)-c1ccc(OC)c(=O)cc1[C@@H](NC(C)=O)CC2 ?
Response: −5.46 ± 0.13 log10 M

Query: What value of measured logIC50 is listed for COc1cc2c(c(-c3cccnc3)c1OC)-c1ccc(OC)c(=O)cc1[C@@H](NC(C)=O)CC2 ?
Response: −5.33 ± 0.14 log10 M

Query: What value of measured logIC50 is listed for COc1cc2c(c(OCc3cccc(Cl)c3)c1OC)-c1ccc(OC)c(=O)cc1[C@@H](NC(C)=O)CC2 ?
Response: −6.43 ± 0.15 log10 M

Query: What value of measured logIC50 is listed for COc1cc2c(c(OC(C)=O)c1OC)-c1ccc(OC)c(=O)cc1[C@@H](NC(C)=O)CC2 ?
Response: −6.48 ± 0.13 log10 M

Query: What value of measured logIC50 is listed for COc1cc2c(c(OCc3ccccc3)c1OC)-c1ccc(OC)c(=O)cc1[C@@H](NC(C)=O)CC2 ?
Response: −6.17 ± 0.07 log10 M

Query: What value of measured logIC50 is listed for COc1cc2c(c(OCC(C)C)c1OC)-c1ccc(OC)c(=O)cc1[C@@H](NC(C)=O)CC2 ?
Response: −6.66 ± 0.11 log10 M

Query: What value of measured logIC50 is listed for COc1cc2c(c(OC(C)C)c1OC)-c1ccc(OC)c(=O)cc1[C@@H](NC(C)=O)CC2 ?
Response: −8.25 ± 0.09 log10 M

Query: What value of measured logIC50 is listed for C=CCOc1cc2c(c(OC)c1OC)-c1ccc(SC)c(=O)cc1[C@@H](NC(C)=O)CC2 ?
Response: −8.45 ± 0.11 log10 M

Query: What value of measured logIC50 is listed for CCC(=O)Oc1c(OC)c(OC)cc2c1-c1ccc(OC)c(=O)cc1[C@@H](NC(C)=O)CC2 ?
Response: −5.41 ± 0.13 log10 M

Query: What value of measured logIC50 is listed for CCCOc1cc2c(c(OC)c1OC)-c1ccc(SC)c(=O)cc1[C@@H](NC(C)=O)CC2 ?
Response: −8.66 ± 0.12 log10 M

Query: What value of measured logIC50 is listed for CCOc1c(OC)c(OC)cc2c1-c1ccc(OC)c(=O)cc1[C@@H](NC(C)=O)CC2 ?
Response: −7.89 ± 0.06 log10 M

Query: What value of measured logIC50 is listed for CCCOc1c(OC)c(OC)cc2c1-c1ccc(OC)c(=O)cc1[C@@H](NC(C)=O)CC2 ?
Response: −7.68 ± 0.09 log10 M

Query: What value of measured logIC50 is listed for CCOc1cc2c(c(OC)c1OC)-c1ccc(SC)c(=O)cc1[C@@H](NC(C)=O)CC2 ?
Response: −8.47 ± 0.14 log10 M

Query: What value of measured logIC50 is listed for C=CCOc1c(OC)c(OC)cc2c1-c1ccc(OC)c(=O)cc1[C@@H](NC(C)=O)CC2 ?
Response: −7.35 ± 0.09 log10 M

Query: What value of measured logIC50 is listed for COc1cc2c(c(OCc3ccc(Cl)cc3)c1OC)-c1ccc(OC)c(=O)cc1[C@@H](NC(C)=O)CC2 ?
Response: −6.22 ± 0.09 log10 M
